- Assay system: Neuraminidase (Influenza A virus)
- Condition description: A/Mississippi/03/01 (H1N1)
Observable: T1/2
Express the reported value numerically, then name its unit.

**Q:** Name the recorded T1/2 for CC(=O)N[C@@H]1[C@@H](O)[C@@H](F)[C@](F)(C(=O)O)O[C@H]1[C@H](O)[C@H](O)CO .
**A:** 24.8 min

**Q:** Which value of T1/2 has been reported for CC(=O)N[C@@H]1[C@@H](O)[C@@H](F)[C@](F)(C(=O)O)O[C@H]1[C@H](O)CCO in the records?
**A:** 30.4 min

**Q:** Could you tell me which T1/2 is on file for CC(=O)N[C@@H]1C[C@@H](F)[C@](F)(C(=O)O)O[C@H]1[C@H](O)[C@H](O)CO ?
**A:** 26.7 min

**Q:** Could you tell me which T1/2 is on file for CC(=O)N[C@@H]1[C@@H](O)[C@@H](F)[C@](F)(C(=O)O)O[C@H]1[C@H](O)[C@@H](C)O ?
**A:** 37.5 min

**Q:** # input molecule: CC(=O)N[C@@H]1[C@@H](O)[C@@H](F)[C@](F)(C(=O)O)O[C@H]1C[C@H](O)CO ; wanted: its T1/2
**A:** 29.2 min

----------
Record form. Attribute: T1/2. Fill in for each entry.
- Assay system: Neuraminidase (Influenza A virus (A/Memphis/1/1971(H3N2)))
- Condition description: Influenza A virus (A/Fukui/45/2004(H3N2))
Numbers only here, please. The scale is min.

**Q:** Sample CC(=O)N[C@@H]1[C@@H](O)[C@@H](F)[C@](F)(C(=O)O)O[C@H]1C[C@H](O)CO — what was its T1/2?
**A:** 13.9

**Q:** Which T1/2 value belongs to CC(=O)N[C@@H]1[C@@H](O)[C@@H](F)[C@](F)(C(=O)O)O[C@H]1[C@H](O)[C@H](O)CO ?
**A:** 17.6

**Q:** Request the reported T1/2 associated with CC(=O)N[C@@H]1[C@@H](O)[C@@H](F)[C@](F)(C(=O)O)O[C@H]1[C@H](O)[C@@H](C)O
**A:** 29.7

**Q:** What value of T1/2 has been reported for the following molecule? CC(=O)N[C@@H]1C[C@@H](F)[C@](F)(C(=O)O)O[C@H]1[C@H](O)[C@H](O)CO
**A:** 13.4

**Q:** Fill in the blank: the reported T1/2 of CC(=O)N[C@@H]1[C@@H](O)[C@@H](F)[C@](F)(C(=O)O)O[C@H]1[C@H](O)CCO is ____.
**A:** 25.1
